# System: SNB-19 CNS
# Protocol Description: NCI-60 one-dose screen, 48 h (100 = growth as untreated, 0 = no growth, -100 = all killed)
# Cond: 10 µM
Compounds without any hit were thinned out: in the full panel of roughly 83,000, 20% have a hit.
Each record's growth is compared with one = under 50%, two = from 50% up to 90%, three = 90% and over to give its class.

Pick a category. Item: COc1ccc2c(c1)N(CCO)C1=C(C(=O)OC1)C2c1ccc(OC)c(OC)c1 (stereo not given)
two

Please answer likewise for "COc1cc2cc3c(nc2cc1OC)CCN3Cc1ccc(NC(=O)c2ccc(Cl)c(C(F)(F)F)c2)cc1"
two

Please answer likewise for "O=C(O)c1ccc(Cl)cc1Nc1ccc(F)cc1"
two

Please answer likewise for "N=C(N)c1ccc(-c2ccc(-c3ccccc3)o2)nc1"
two

Please answer likewise for "CN(C)c1ccc(N=C2C=CC(=O)c3ccccc32)cc1"
two

Please answer likewise for "O=S(=O)(NCCCNc1nccc(-c2c(-c3ccc(F)cc3)nc3sccn23)n1)c1ccc(F)cc1"
three

Please answer likewise for COc1ccc2nc3ccccc3c(NCCNCC(C)O)c2c1 (stereo not given)
one

Please answer likewise for "COc1ccc2c(c1)-c1c(c3cc(OC)ccc3n(CCN(C)C)c1=O)C2=O"
one

Please answer likewise for "COc1ccc2c(c1)sc1nc(-c3ccccc3)c(-c3cccnc3)n12"
three

Please answer likewise for "CCN(CC)CCSCCN(CC)CC"
three

Please answer likewise for "Cc1cc(Cl)nc(N(CCCNc2ccnc3cc(Cl)ccc23)Cc2cccs2)n1"
one

Please answer likewise for "COc1cc(Cc2cc(-c3ccc(Cl)cc3)n[nH]c2=O)ccc1O"
two

Please answer likewise for "c1ccc(CP(Cc2ccccc2)c2ccccc2)cc1"
three

Please answer likewise for C=C(NC(=O)C(=C)NC(=O)c1csc(C2=NC3c4csc(n4)C4NC(=O)c5csc(n5)C(C(C)(O)C(C)O)NC(=O)C5CSC(=N5)/C(=C/C)NC(=O)C(C(C)O)NC(=O)c5csc(n5)C3(CC2)NC(=O)C(C)NC(=O)C(=C)NC(=O)C(=C)NC(=O)C(C(C)C)NC2C=Cc3c(C(C)O)cc(nc3C2O)C(=O)OC4C)n1)C(N)=O (stereo not given)
one

Please answer likewise for "COc1cc(Cl)cc(-c2nn(-c3cccc(NC(=O)Nc4cc(C(F)(F)F)cc(C(F)(F)F)c4)c3)cc2-c2ccncc2)c1"
one

Please answer likewise for "O=C(/C(=C/c1ccccc1)CN1CCCCC1)c1ccccc1"
one

Please answer likewise for "COc1cc(OC)cc(-c2cncn2-c2ccc(-c3nc4cc(OC)cc(OC)c4s3)cc2)c1"
two
